- targetOfAssay: glutathione S-transferase (GST)-fused full-length human Syk protein (Homo sapiens)
- Construct: (GST)-fused full-length human Syk protein; GST (glutathione S-transferase); purchased Carna Biosciences
- protocolText: Syk enzyme assay
- Assay type: biochemical
- setupConditions: Syk enzyme assay, Test Example 1; read-out: IC50 of Syk-inhibitory activity
outcomeMeasure: IC50

Query IC50 for COc1cccc2cc(Nc3nc(N[C@@H]4CCCC[C@@H]4N)c(F)cc3C(N)=O)cnc12 (relative stereo) < 10 nM

Further cases:
Look up and state reported IC50 for NC(=O)c1cc(F)c(N[C@@H]2CCCC[C@@H]2N)nc1Nc1cncc(CO)c1 (relative stereo) 50 to 100 nM

For COc1ccc(F)c(-c2cc(Nc3nc(NC4CCCCC4N)c(F)cc3C(N)=O)ccn2)c1 (stereo not drawn) , write its IC50. < 10 nM

Give the reported IC50 for this compound. CC(C)COc1ccccc1-c1cncc(Nc2nc(N[C@@H]3CCCC[C@@H]3N)c(F)cc2C(N)=O)c1 (relative stereo) 50 to 100 nM

Report IC50, nothing else, for this compound: CN(C)c1ccc(Nc2nc(NC3CCCCC3N)c(F)cc2C(N)=O)cn1 (stereo not drawn) 50 to 100 nM

Give me measured IC50, please, for this compound: NC(=O)c1cc(F)c(N[C@@H]2CCCC[C@@H]2N)nc1Nc1cncc(N2CCCC2)c1 (relative stereo) < 10 nM

Report IC50, nothing else, for this compound: COCCOc1cccc(-c2cncc(Nc3nc(N[C@@H]4CCCC[C@@H]4N)c(F)cc3C(N)=O)c2)c1 (relative stereo) < 10 nM

Supply IC50 value. Item: Cc1nc2ccc(Nc3nc(NC4CCCCC4N)c(F)cc3C(N)=O)cc2nc1C (stereo not drawn) < 10 nM

Could you please provide reported IC50 for "C[C@H](N)[C@H](Nc1nc(Nc2ccc3cnn(C)c3c2)c(C(N)=O)cc1F)C1CC1" ? Thanks! < 10 nM

Give the reported IC50 for this compound. NC(=O)c1cc(F)c(NC2CCCCC2N)nc1Nc1ccc(-n2cccn2)nc1 (stereo not drawn) 10 to 50 nM

Could you please provide reported IC50 for "NC(=O)c1cc(F)c(NCc2ncc[nH]2)nc1Nc1ccc2ncccc2c1" ? Thanks! 100 to 1000 nM

Specify measured IC50 for "COCCn1ccc2c(Nc3nc(N[C@@H]4CCCC[C@@H]4N)c(F)cc3C(N)=O)ccnc21" . < 10 nM

====

- System: THP-1 cells
- protocolText: TNFα generation assay
- Type: cell-based, human
- setupConditions: Homo sapiens, THP-1, THP-1 cells; Table 22; read-out: IC50 in TNFα generation assay
pIC50: −log10 of the molar value.
outcomeMeasure: pIC50

Some compounds with known pIC50 results, for comparison:
// fetch pIC50 given entry CCC[C@@H](Nc1nc(Nc2ccnc(-c3ccccc3F)c2)c(C(N)=O)cc1F)[C@H](C)N [Example 006-333] 6.89 to 7.19

Return reported pIC50. Input compound: COc1cc(Nc2nc(N[C@H](C)CN)c(F)cc2C(N)=O)cc(OC)c1 [Example 006-100] 6.89 to 7.19

New cases:
# return recorded pIC50 for input C[C@H](N)[C@@H](C)Nc1nc(Nc2cccc(-n3ccnn3)c2)c(C(N)=O)cc1F (racemic) [Example 006-121] 6.70 to 6.89

Answer with reported pIC50 of CCc1nn(CC(F)F)c2ccc(Nc3nc(N[C@@H]4CCCC[C@@H]4N)c(F)cc3C(N)=O)cc12 [Example 006-455] 6.89 to 7.19

Could you please provide reported pIC50 for C[C@H](N)[C@@H](CC1CC1)Nc1nc(Nc2ccc3ncccc3c2)c(C(N)=O)cc1F [Example 006-217] ? Thanks! > 7.19
